Data origin: paper PMC10714399

- System: Staphylococcus aureus NCTC 13373 (mecA-positive; methicillin-resistant)
- method.description: In vitro antibacterial activity, MIC (UCL School of Pharmacy assay), MRSA
- Assay type: cell-based
- measurement.setup: Staphylococcus aureus, UCL; read-out: MRSA MIC (UCL)
Listed molecules paired with reported MIC

Answered examples (3):
So what does the record say about MIC for COc1ccn2c(Nc3cccc(F)c3)c(-c3cn(C)cn3)nc2c1 ? > 32 mg/L

So what does the record say about MIC for Cc1ccc2nc(-c3ccccn3)c(Nc3ccc4c(c3)OCCO4)n2c1 ? 8 mg/L

So what does the record say about MIC for Fc1ccc(Nc2c(-c3nccs3)nc3ccccn23)cc1 ? > 32 mg/L

Further cases:
So what does the record say about MIC for CCCN(c1ccc(F)cc1)c1c(-c2ccccn2)nc2ccccn12 ? 2 mg/L

So what does the record say about MIC for COc1ccc(-c2nc3ccc(OC)cn3c2N(C)c2ccc(F)cc2)nc1 ? 8 mg/L

So what does the record say about MIC for CC(C)CN(c1ccc(F)cc1)c1c(-c2nccs2)nc2ccccn12 ? > 32 mg/L

So what does the record say about MIC for c1ccc(-c2nc3ccccn3c2-c2ccc3sccc3c2)nc1 ? 4 mg/L

So what does the record say about MIC for Cc1ccccc1-c1c(-c2ccccn2)nc2n1CCC2 ? 32 mg/L

So what does the record say about MIC for COc1ccn2c(Nc3ccc4c(c3)OCCO4)c(-c3c[nH]cn3)nc2c1 ? > 32 mg/L
